Origin of values: ChEMBL document CHEMBL4831512

Experiment: physchem
Details: simulated gi fluid
Description: Solubility of compound in fed state simulated intestinal fluid by shake flask method
Exercise: for every item that follows, state its recorded solubility thermodynamic.
Please reply with the bare figure in µg/mL and do not write the unit itself.

q: Fill blank: measured solubility thermodynamic of the molecule Cc1noc(-c2cc(-c3cc(S(=O)(=O)NCC(C)(C)O)ccc3C)cnc2N)n1 is ____.
a: 92

q: Fill blank: measured solubility thermodynamic of the molecule Cc1ncc(-c2cc(-c3cc(S(=O)(=O)NCC(C)(C)O)ccc3C)cnc2N)o1 is ____.
a: 200

* * *

Exercise: for every item that follows, state its recorded solubility thermodynamic.
Assay: physchem
Settings: buffer, pH 6.8
Description: Solubility of compound at pH 6.8 by shake flask method
Please reply with the bare figure in µg/mL and do not write the unit itself.

q: Fill blank: measured solubility thermodynamic of the compound Cc1noc(-c2cc(-c3cc(S(=O)(=O)NCC(C)(C)O)ccc3C)cnc2N)n1 is ____.
a: 16

q: Fill blank: measured solubility thermodynamic of the compound Cc1ncc(-c2cc(-c3cc(S(=O)(=O)NCC(C)(C)O)ccc3C)cnc2N)o1 is ____.
a: 4
